- METHOD NOTES: antimalarial activity against Dd2 strain (AID 2302);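 note: 0% = DMSO untreated growth and 100% = chloroquine plus artemisinin killed control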
- EXPERIMENTAL CONTEXT: P. falciparum Dd2 in RBCs, LDH growth readout, 72 h; at 2 µM; active compounds read high
Reported growth inhibition by item:
Report only the number, with the unit % understood.

COc1cc(Nc2ccnc3cc(-c4ccncc4)ccc23)cc(OC)c1OC: 39
C=CCc1cc(Cc2cnc(N)nc2N)c2ccc(C)nc2c1O: 3
O=S1c2ccccc2Sc2ccccc21: -1
CCOC(=O)CCCOc1cc(Cc2cnc(N)nc2N)cc(OC)c1OC: 3
Cc1ccc(C)c(NC(=O)Nc2ccc(Nc3nc(C)cc(N4CCOCC4)n3)cc2)c1: 48

Task: Look at this compound and give its reported growth inhibition. CCCCCCCN(CCCCCCC)CCCC(=O)Nc1ccnc2ccc(OC)cc12
Output: 98

Task: # query: growth inhibition of entry O=C(Nc1ccc2c(c1)CCN2C1CCN(Cc2ccc(C(F)(F)F)cc2F)C1)c1ccco1 (stereo not given)
Output: 94

Task: If you can, please state the reported growth inhibition value of CC(C)c1ccc(C=CC(=O)N2CCC(CCN3CCC(c4c[nH]c5ccccc45)CC3)CC2)cc1 .
Output: 11

Task: For COc1ccc2nccc([C@@H](O)CN3CCC(NCc4nc5c(F)cccc5[nH]4)CC3)c2c1 , what is its reported growth inhibition?
Output: 6

Task: Which growth inhibition is reported for this compound? O=C(NC1CC1)c1ccc(N2CCC(Oc3ccc(F)cc3)CC2)nc1
Output: 79

Task: I have this compound here, O=C(/C=C/c1ccc(Cl)c(Cl)c1)NCCCCCN1CCC(NC(=O)Nc2ccc(F)c(F)c2)CC1 , and I need its recorded growth inhibition.
Output: 4

Task: # growth inhibition lookup, item CC(C)c1cn2c3c(cc(C(=O)N[C@@H](Cc4ccccc4)[C@H](O)CNC4CCOCC4)cc13)N(C)S(=O)(=O)CC2
Output: 99

---

- METHOD NOTES: inhibition of 3D7 malaria parasite growth – strain 3D7 (AID 2306);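 note: 0% = DMSO wells and 100% = chloroquine plus artemisinin control wells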
- EXPERIMENTAL CONTEXT: P. falciparum 3D7 erythrocytic growth, LDH absorbance, 72 h; at 2 µM; active compounds read high
MEASUREMENT LABEL: growth inhibition (%)
Response body: numeric value in %, unit text excluded.

Before answering, review these 8 worked examples.
COc1ccc2nccc([C@@H](O)CN3CCC(NC(=O)C(c4cc5ccccc5o4)N4CCC(Cc5ccccc5)CC4)CC3)c2c1 (some centres undefined): 100
O=C(Nc1ccc(F)cc1)NC1CCN(CCCCCNC(=O)[C@@H]2C[C@H]2c2ccc(Cl)c(Cl)c2)CC1: 101
CCCCCCN1CCCN(Cc2ccc(C(=O)Nc3ccc(CCC)cc3)cc2)CC1: 92
CC(=O)c1sc(NC(=O)Nc2ccc(C)cc2C)nc1C: 96
CC(=O)c1cc(N2CCOCC2)ccc1N: 91
CN(Cc1cccc(O)c1)C1CCN(c2cc(NC(=O)c3ccc(F)cc3)ccn2)CC1: 94
O=C(/C=C/c1ccc(Cl)c(Cl)c1)NCCCCCN1CCCC(CNC(=O)Nc2ccc(Oc3ccccc3)cc2)C1 (centres undefined): 99
Cc1ccc(CNc2ccc3ncc(-c4cccc(C(=O)NCCN(C)C)c4)n3n2)c(C)c1: 100

Task: Can you look up the measured growth inhibition of CCCNC(=O)C1Cc2c([nH]c3ccc(Br)cc23)C2(CCN(CCc3ccccc3)CC2)N1 (centres undefined) for me?
Output: 99

Task: Look at this compound and give its reported growth inhibition. CN1CCC(NCc2cccc(-c3cnc(NCc4ccccc4)nc3)c2)CC1
Output: 102

Task: Requested field: growth inhibition. Item: O=C(NCCCCN1CCC(c2c[nH]c3ccccc23)CC1)c1ccc(-c2ccc(C(F)(F)F)cc2)cc1
Output: 98

Task: // lookup growth inhibition for Clc1ccc(CNc2ccnc(NCc3cccnc3N3CCCC3)n2)c(Cl)c1
Output: 85

Task: May I ask what growth inhibition has been recorded for COc1ccc(N2CCN(CCCCNC(=O)c3ccc(NC(=O)c4ccc(C(F)(F)F)cc4)cc3)CC2)c(OC)c1 ?
Output: 100

Task: Item Oc1ccc2ccccc2c1CNCCC1CCCCC1 has what recorded growth inhibition?
Output: 99

Task: Consider the compound O=C(Nc1ccc(C(F)(F)F)cc1)c1cccc(S(=O)(=O)NC2CCN(Cc3ccccc3)C2)c1 (centres undefined) and give its measured growth inhibition.
Output: 88

Task: // growth inhibition lookup, key: COc1ccc(CCN2CCC(Nc3nc4ccccc4n3CCc3ccc(OC)cc3)CC2)cc1
Output: 101

Task: GET /values?readout=growth inhibition&item= COc1nc2c(N3CCN(CCNCc4ccc5c(n4)NC(=O)CS5)CC3)ccnc2cc1F
Output: 101

Task: For the compound COc1cccc(NC(=O)[C@H](C(C)C)n2c(=O)[nH]c3ccccc3c2=O)c1 , what growth inhibition is on record?
Output: 101

Task: Consider the compound shown here: N#Cc1ccc(S(=O)(=O)N2C(c3cccc([N+](=O)[O-])c3)C(C(=O)c3ccccc3)N(C3CCCCC3)C2c2cccc([N+](=O)[O-])c2)cc1 (centres undefined) What is its recorded growth inhibition?
Output: 83
